Test system: HCT-116 colon
test: NCI tumour cell line growth inhibition, 48 h; in the data active = GI50 below about 0.43 µM; inactive = the rest
Outcome codes: active, inactive

{"compound": "COc1ccc(/C=C(/C(=O)N2CCN(c3ccccc3)CC2)c2cc(OC)c(OC)c(OC)c2)cc1N", "class.label": "active"}
{"compound": "Nc1c(C(=O)c2ccc(-c3cccnc3)cc2)cnn1-c1ccc(F)cc1", "class.label": "inactive"}
{"compound": "CCN(CC)CCNc1ccc(C)c2sc3cc(Cl)ccc3c(=O)c12", "class.label": "inactive"}
{"compound": "C[C@]12CC[C@@H]3c4cc(OC(F)F)c(O)cc4CC[C@H]3[C@@H]1CC[C@@H]2OS(N)(=O)=O", "class.label": "active"}
{"compound": "O=C1c2[nH]cc(CNC3CN4CCC3CC4)c2C(=O)c2c1c(O)c1ccccc1c2O (stereo not given)", "class.label": "active"}

----------
Tested on: TK-10 renal
test: NCI tumour cell line growth inhibition, 48 h
Listed here are molecules together with their documented TGI.
measured.endpoint: TGI (µM)

{"molecule": "Cc1ccc(S(=O)(=O)c2ccc(NC(=O)SCCC(=O)O)cc2)cc1", "measured.endpoint": "TGI", "relation.qualifier": ">", "value.observed": 100}
{"molecule": "N#Cc1c(NC(=O)NCc2ccccc2)sc2c1CCCC2", "measured.endpoint": "TGI", "relation.qualifier": ">", "value.observed": 100}
{"molecule": "CCOC(=O)C1=C(C)N=c2s/c(=C\\c3ccccc3O)c(=O)n2C1c1ccc(OC)c2ccccc12 (configuration not stated)", "measured.endpoint": "TGI", "relation.qualifier": "=", "value.observed": 23.3}
{"molecule": "C[Si](C)(C)C#Cc1cc(-c2nc3ccccc3s2)ccc1N", "measured.endpoint": "TGI", "relation.qualifier": "=", "value.observed": 26.2}
{"molecule": "COC(=O)C1=Cc2cc(OC)c(OC)c(OC)c2[C@H](c2cc(OC)c(OC)c(OC)c2)C1C(=O)OC (some centres not stated)", "measured.endpoint": "TGI", "relation.qualifier": ">", "value.observed": 100}
{"molecule": "O=S(=O)([O-])c1ccc(N=Cc2ccccc2[O-])cc1.O=S(=O)([O-])c1ccc(N=Cc2ccccc2[O-])cc1.[O]=[U+2]=[O]", "measured.endpoint": "TGI", "relation.qualifier": "=", "value.observed": 71.7}
{"molecule": "Nc1nc2c(ncn2C2CCC(CO)O2)c(=O)n1C(=O)c1ccccc1 (configuration not stated)", "measured.endpoint": "TGI", "relation.qualifier": ">", "value.observed": 100}

----------
Tested on: SK-OV-3 ovarian
test: NCI tumour cell line growth inhibition, 48 h
Listed here are compounds together with their documented TGI.

{"compound": "O=C(O)CSCc1cc2c(O)c(c1)Cc1cc(CSCC(=O)O)cc(c1O)Cc1cc(CSCC(=O)O)cc(c1O)Cc1cc(CSCC(=O)O)cc(c1O)C2", "TGI": "> 100 µM"}
{"compound": "CC(=O)OC1CC2CCN3C(=O)c4cc5c(cc4[C@H](C1OC(C)=O)C23)OCO5 (some centres undefined)", "TGI": "> 100 µM"}
{"compound": "c1ccc([CH2][Sn]([CH2]c2ccccc2)([O]c2cccc3cccnc23)[O]c2cccc3cccnc23)cc1", "TGI": "1.57 µM"}
{"compound": "CC(=O)OCC(OC(C)=O)C(OC(C)=O)C(/C=N\\Nc1nc2ccccc2c(=O)[nH]1)=N\\Nc1nc2ccccc2c(=O)[nH]1 (centres undefined)", "TGI": "> 100 µM"}
{"compound": "OCc1cc2c(ccc3sc4ccc5sc6ccc7ncccc7c6c5c4c32)s1", "TGI": "39.9 µM"}
{"compound": "NC(CSCc1ccc(I)cc1)C(=O)O (centres undefined)", "TGI": "> 100 µM"}
{"compound": "COc1ccc(/C=N/NC(=O)c2sc(=S)n(-c3ccccc3)c2N)cc1", "TGI": "> 100 µM"}
{"compound": "COc1ccc(OC(C)=O)c2c1CCC=CC2=O", "TGI": "31.2 µM"}
{"compound": "O=c1ccn(CC2(CO)CCCC2)c(=O)[nH]1", "TGI": "> 100 µM"}
